Cited source for all entries: PubChem BioAssay (NCI)

- Tested on: UACC-62 melanoma
- assayProcedure: NCI-60 one-dose screen, 48 h (100 = growth as untreated, 0 = no growth, -100 = all killed)
- testContext: 10 µM unless noted
About 83,000 compounds went through this panel and 20% of them were active in at least one assay; those are over-represented in the sample as a whole.
Response field label: string, one of YES (growth strictly below 10%) or NO.

compound	labelValue
COc1cc(-n2cc(-c3cc(O)c(C/C=C(\C)CCC=C(C)C)c(O)c3)nn2)cc2c1O[C@]1(C)CC[C@@H](O)C(C)(C)[C@H]1C2	YES
CN1CCN(c2ccc(NC(=O)c3cncnc3Nc3ccc(OCc4ccccn4)c(Cl)c3)cc2)CC1	YES
COc1ccc(-c2nnc3n(C)c(=O)c4ccccc4n23)cc1N	NO
O=C1N(Cc2ccccc2Cl)c2ccccc2C12NN=C(c1cccc(Cl)c1)S2 (stereo not given)	YES
C=CCc1c(O)c(C(=O)/C=C/c2ccc(Cl)cc2)c(OC)c2ccoc12	NO

====

- Tested on: BT-549 breast
- assayProcedure: NCI-60 one-dose screen, 48 h (100 = growth as untreated, 0 = no growth, -100 = all killed)
- testContext: 10 µM unless noted
The panel holds about 83,000 compounds, 20% with a hit somewhere; the sample as a whole holds those more often.
Response field label: string, one of Met (growth strictly below 90%) or Not met.

CC[C@]12C=CCN3CC[C@@]4(c5cc(NC(=O)CCC(=O)OCc6cn(Cc7ccc(F)cc7)nn6)c(OC)cc5N(C)[C@H]4[C@@](O)(C(=O)OC)[C@@H]1OC(C)=O)[C@@H]32 Not met
COc1ccc(-c2cc(-c3ccc(Cl)cc3)c(C#N)c(=O)n2CCCCC(=O)Nc2ccccc2N)cc1 Met
CC(C)(C)n1cc(-c2ccnc(NCCNS(=O)(=O)c3cccc(F)c3)c2)c(-c2ccccc2)n1 Not met
Cc1ccccc1Cn1cnc2ccc(-c3cc(NC(=O)c4ccc(NC5CCN(C)CC5)cc4)n[nH]3)cc21 Met
Cc1cccc2c1NC(=O)C2(c1ccc(O)cc1)c1ccc(O)cc1 Met

====

The entries below are paired with their reported growth.
- Test system: IGROV1 ovarian
- assayProcedure: NCI-60 one-dose screen, 48 h (100 = growth as untreated, 0 = no growth, -100 = all killed)
- testContext: 10 µM unless noted
The panel holds about 83,000 compounds, 20% with a hit somewhere; the sample as a whole holds those more often. Activity calls are given as the source filed them. Rule for the calls: active = growth percent below 10; inactive = the rest.

molecule	subjectOfTest	growth
COC(C(=O)[C@@H](O)[C@@H](C)O)[C@@H]1Cc2cc3cc(O[C@H]4C[C@@H](O[C@H]5C[C@@H](O)[C@H](O)C(C)O5)[C@H](O)C(C)O4)cc(O)c3c(O)c2C(=O)[C@H]1O[C@H]1C[C@@H](O[C@H]2C[C@@H](O[C@H]3C[C@@H](OC)[C@H](O)C(C)O3)[C@@H](O)C(C)O2)[C@H](O)C(C)O1 (stereo partly drawn)	IGROV1 ovarian	32.4% (inactive)
CCCCC(=O)c1ccco1	IGROV1 ovarian	91.1% (inactive)
Cc1ccc(-c2nc(N3CCNCC3)c3oc(-c4ccccc4)nc3n2)cc1	IGROV1 ovarian	-68% (active)
COc1ccc(-c2nc(SCC(C)C)nc(N/N=C\c3ccc(F)cc3)c2C#N)cc1	IGROV1 ovarian	80.5% (inactive)
O=C1C(Cl)=C(Nc2ccc(O)cc2)C(=O)N1Cc1ccc(Cl)cc1	IGROV1 ovarian	30.5% (inactive)
COC(=O)c1n[nH]c2ccc3nc(-c4cn[nH]c4C(F)(F)F)c4c(c3c12)CCCC4	IGROV1 ovarian	19.5% (inactive)
CCN1C(=O)N(CC)C2C1NN=c1s/c(=C\c3ccc(Cl)cc3Cl)c(=O)n12 (stereo not drawn)	IGROV1 ovarian	13.4% (inactive)
COc1ccc2[nH]cc(-c3nc(-c4c[nH]c5ccncc45)cs3)c2c1	IGROV1 ovarian	64.7% (inactive)

====

- Tested on: UACC-257 melanoma
- assayProcedure: NCI-60 one-dose screen, 48 h
- testContext: 10 µM unless noted
This is part of a sample that, as a whole, favours compounds with a hit. Of some 83,000 tested, about 20% had one in any assay. The source made the active and inactive calls. The calls were made as follows: active = growth percent below 10; inactive = the rest.
Possible outcomes: active, inactive

Fc1ccc(-c2nn(-c3ccccc3)cc2-c2nc3ccccc3o2)cc1 inactive
O=C(/C=C(/C=C/c1cccc2[nH]ccc12)OB(F)F)/C=C/c1cccc2[nH]ccc12 active
C=C(C)[C@@H]1CC[C@]2(C(=O)NCCNCCN)CC[C@]3(C)[C@H](CC[C@@H]4[C@@]5(C)C/C(=C/c6ccncc6)C(=O)C(C)(C)[C@@H]5CC[C@]43C)[C@@H]12 inactive

====

- System: SNB-75 CNS
- assayProcedure: NCI-60 one-dose screen, 48 h (100 = growth as untreated, 0 = no growth, -100 = all killed)
- testContext: 10 µM unless noted
The panel holds about 83,000 compounds, 20% with a hit somewhere; the sample as a whole holds those more often.
propertyMeasured: growth (%)

Cc1cc(Cl)ccc1Nc1nc(C(F)(F)F)ccc1C(=O)N/N=C/c1ccc([N+](=O)[O-])cc1 -12.2
C#CCOc1ccc2ncnc(Nc3cccc(NC(=O)C=C)c3)c2c1 60.5
Cc1ccc(Cl)cc1Nc1nc(C(F)(F)F)ccc1C(=O)N/N=C/c1cccnc1 52
Cc1ccc(-c2nc(/C=C3/C(=O)Nc4ccccc43)c3ccccn23)cc1 88.9

====

- System: CCRF-CEM leukemia
- assayProcedure: NCI-60 one-dose screen, 48 h (100 = growth as untreated, 0 = no growth, -100 = all killed)
- testContext: 10 µM unless noted
Compounds without any hit were thinned out: in the full panel of roughly 83,000, 20% have a hit.
propertyMeasured: growth (%)

Cc1ccc(NC(=S)NNC(=S)NNc2ccccc2)cc1C 44.4
Cc1ccc(-c2nc(/C=C3/C(=O)Nc4ccccc43)c3ccccn23)cc1 84.3
C/C(=C(/c1ccc(Cl)cc1)c1ccc(OCCN2CCCC2)cc1)c1ccc(Cl)cc1 61.7

====

- Tested on: A498 renal
- assayProcedure: NCI-60 one-dose screen, 48 h (100 = growth as untreated, 0 = no growth, -100 = all killed)
- testContext: 10 µM unless noted
About 83,000 compounds went through this panel and 20% of them were active in at least one assay; those are over-represented in the sample as a whole.
The entries below are paired with their reported growth.

molecule	subjectOfTest	growth [%]
O=C(Nc1nc2ccc(F)cc2s1)c1cccnc1Nc1ccc(Cl)cc1	A498 renal	17.9
Cc1ccc(-n2c(=S)[nH]c3sc4c(c3c2=O)CCC(=O)C4)cc1	A498 renal	109
c1ccc(CNc2c3ccccc3nc3ccccc23)cc1	A498 renal	16.6
Cn1ccnc1C(=O)C(=O)Nc1ccc(CC(=O)Nc2ccccc2)cc1	A498 renal	103
O=C(c1ccccc1)C1C(=O)N2C(=S)N(c3ccccc3)C(=O)C2C1c1ccc(Cl)cc1 (stereo unspecified)	A498 renal	81.9
CCCCCCNC(=O)Oc1ccc(/C(=C(/C)Cc2ccc(OC)cc2)c2ccc(OCCCN(C)C)cc2)cc1	A498 renal	97.3
Cc1ccc(Sc2oc(-c3ccc(C)cc3)nc2[P+](c2ccccc2)(c2ccccc2)c2ccccc2)cc1	A498 renal	-40.5
O=C1c2cc(Cl)ccc2S(=O)(=O)c2c(NCCCNCCO)nc3ccccc3c21	A498 renal	57.3
Oc1c(Cl)cc(Cl)c2ccc(Cn3cc(-c4cc(F)cc(F)c4)nn3)nc12	A498 renal	99.4
O=C(O)/C(=C\c1ccc(Cl)cc1)c1ccc(Cl)cc1	A498 renal	94.9
CCOC(=O)C1=NN(c2ccccc2)C(=O)/C1=C\N1C(=O)CC(=O)NC1=S	A498 renal	104

====

- Tested on: M14 melanoma
- assayProcedure: NCI-60 one-dose screen, 48 h (100 = growth as untreated, 0 = no growth, -100 = all killed)
- testContext: 10 µM unless noted
About 83,000 compounds went through this panel and 20% of them were active in at least one assay; those are over-represented in the sample as a whole.
Use 20% as the dividing line for growth, with the line itself on the MET side and lower values as NOT MET.

compound	labelValue
O=C(Nc1cccnc1Nc1ccc(F)cc1)c1cn(Cc2cccc(Oc3ccccc3)c2)nn1	MET
CCCCC(=O)c1ccco1	MET
CC(C)NC1CCC(Nc2ccnc3cc(Cl)ccc23)CC1 (stereo not drawn)	MET
COc1ccc2c3c([nH]c2c1)C(=O)c1nc(C)ccc1C3=O	NOT MET
CSc1nnc(-c2cnn3c2NC(c2ccccc2)C3)n1-c1ccc(C(F)(F)F)cc1 (stereo not drawn)	MET
CN(CCOc1ccc(C#N)cc1)CCOc1ccc(C#N)cc1	MET
N=C(N)c1ccc(-c2ccc(-c3ccc(Cl)cc3)s2)nc1	NOT MET
CO[C@]12C=C/C(=C(/C(=O)OCc3cccnc3)C(=O)CCCCCCCC[C@@]3(OC)C=C/C(=C(/C(=O)OCc4cccnc4)C(=O)CCCCCCCC1)O3)O2	NOT MET
